Cited source: patent US9193722B2

- target: PKC delta kinase (Homo sapiens, UniProt Q05655)
- Sequence (Q05655 whole entry): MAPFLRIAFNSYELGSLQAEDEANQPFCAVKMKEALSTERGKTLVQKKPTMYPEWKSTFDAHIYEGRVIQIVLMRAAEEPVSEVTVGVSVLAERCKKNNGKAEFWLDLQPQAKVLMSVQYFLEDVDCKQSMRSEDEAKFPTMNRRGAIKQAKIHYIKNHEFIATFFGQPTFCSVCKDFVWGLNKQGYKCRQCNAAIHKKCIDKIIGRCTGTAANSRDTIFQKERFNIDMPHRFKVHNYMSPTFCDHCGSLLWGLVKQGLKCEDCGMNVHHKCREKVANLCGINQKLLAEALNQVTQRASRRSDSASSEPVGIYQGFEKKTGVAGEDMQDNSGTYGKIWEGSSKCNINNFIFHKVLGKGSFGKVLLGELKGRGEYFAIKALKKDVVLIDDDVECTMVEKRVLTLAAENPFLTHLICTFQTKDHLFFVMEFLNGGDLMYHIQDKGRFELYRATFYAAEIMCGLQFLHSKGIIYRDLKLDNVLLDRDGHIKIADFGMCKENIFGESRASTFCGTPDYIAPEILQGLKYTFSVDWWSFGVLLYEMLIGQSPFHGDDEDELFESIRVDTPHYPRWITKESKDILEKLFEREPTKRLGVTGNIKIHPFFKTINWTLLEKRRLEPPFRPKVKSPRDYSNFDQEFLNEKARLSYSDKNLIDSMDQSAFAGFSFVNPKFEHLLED
- protocol_summary: PKC delta kinase inhibition, coupled-enzyme (NADH absorbance) assay, Ki
- Type: biochemical
- condition: 150 μM ATP, 46 nM PKC delta kinase, 30° C.; read-out: Ki PKC delta
// reported Ki for each item listed

// fetch Ki given entry CC(C)C(F)(F)C1CN(c2ccc(F)c(-c3n[nH]c4ncccc34)n2)CCN1 (stereo not drawn) [Compound 167]
> 1.25 µM

// fetch Ki given entry CC(C)C(C)(O)C1CN(c2nc(-c3n[nH]c4ncccc34)ccc2F)CCN1 (stereo not drawn) [Compound 373]
< 0.05 µM

// fetch Ki given entry CCC(C)(O)C1CN(c2ccc(F)c(-c3n[nH]c4ncccc34)n2)CCN1 (stereo not drawn) [Compound 244]
> 1.25 µM

---

- target: UniProt Q04759
- Sequence (Q04759 whole entry): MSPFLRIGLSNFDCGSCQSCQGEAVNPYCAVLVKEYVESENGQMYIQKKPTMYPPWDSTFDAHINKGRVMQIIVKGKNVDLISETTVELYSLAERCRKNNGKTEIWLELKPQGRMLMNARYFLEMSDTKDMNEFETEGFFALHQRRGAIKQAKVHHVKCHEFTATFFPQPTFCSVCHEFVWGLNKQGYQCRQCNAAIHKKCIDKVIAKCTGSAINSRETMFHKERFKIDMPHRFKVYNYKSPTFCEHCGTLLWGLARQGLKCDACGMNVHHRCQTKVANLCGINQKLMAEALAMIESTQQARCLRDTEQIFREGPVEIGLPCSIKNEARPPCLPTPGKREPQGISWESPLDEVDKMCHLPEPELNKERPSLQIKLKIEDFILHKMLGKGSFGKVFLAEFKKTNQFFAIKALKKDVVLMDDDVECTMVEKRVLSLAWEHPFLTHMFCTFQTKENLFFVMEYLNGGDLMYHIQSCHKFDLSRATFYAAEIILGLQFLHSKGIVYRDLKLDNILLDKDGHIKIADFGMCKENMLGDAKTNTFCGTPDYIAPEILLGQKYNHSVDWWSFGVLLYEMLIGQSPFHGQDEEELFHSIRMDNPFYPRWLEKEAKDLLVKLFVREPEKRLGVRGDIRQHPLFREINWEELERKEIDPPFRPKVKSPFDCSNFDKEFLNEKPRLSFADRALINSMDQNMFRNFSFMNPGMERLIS
- protocol_summary: PKC theta kinase inhibition, coupled-enzyme (NADH absorbance) assay, Ki
- Assay type: biochemical
- condition: 240 μM ATP, 18 nM PKC theta kinase, 30° C.
pKi: −log10 of the molar value.
assay_metric: pKi

These solved cases illustrate the format of a correct answer.
CC1(N)CCCN(c2ccc(C(F)(F)F)c(-c3n[nH]c4ncccc34)n2)C1 (centres unmarked) ... < 6.15
CC(C)C[C@H]1CN(c2cc(CO)cc(-c3n[nH]c4ncccc34)n2)CCN1 ... > 7.30
CC1CN(c2ccc(C(F)(F)F)c(-c3n[nH]c4ncccc34)n2)CC1CN (centres unmarked) ... < 6.15
NCC1CCN(c2cc(C(F)(F)F)cc(-c3n[nH]c4ncccc34)n2)CC1 ... > 6.30
CCC[C@H]1CN(c2ccc(F)c(-c3n[nH]c4ncccc34)n2)C[C@@H]1N ... > 6.30

// fetch pKi given entry CC(C)C[C@@H]1CC(O)(c2cccc(-c3n[nH]c4ncccc34)n2)CCN1 (some centres unmarked)
< 6.15

// fetch pKi given entry CC(C)C(C)(O)[C@H]1CCCN(c2ccc(F)c(-c3n[nH]c4ncccc34)n2)C1 (some centres unmarked)
> 6.30

// fetch pKi given entry OCC1CCN(c2ccc(C(F)(F)F)c(-c3n[nH]c4ncccc34)n2)CC1
< 6.15
